// data source = paper PMC8138313

target: HLA A*0301 (Homo sapiens)
Where a SMILES comes first, the peptide text is derived from it.
assay.metric: IC50 (nM)

molecule	study.target	measured.value
CC(C)C[C@H](NC(=O)[C@H](C)N)C(=O)N[C@@H](CC(N)=O)C(=O)N[C@@H](CC(C)C)C(=O)N[C@@H](Cc1ccccc1)C(=O)N[C@@H](Cc1ccccc1)C(=O)N[C@@H](CCC(N)=O)C(=O)N[C@@H](CC(N)=O)C(=O)N[C@@H](CCCCN)C(=O)O (H-ALNLFFQNK-OH)	HLA A*0301 (Homo sapiens)	1140
CSCC[C@H](NC(=O)[C@H](CC(N)=O)NC(=O)[C@H](CCC(N)=O)NC(=O)[C@H](CC(N)=O)NC(=O)[C@H](C)NC(=O)[C@H](CCSC)NC(=O)[C@@H](N)[C@@H](C)O)C(=O)N[C@@H](CC(N)=O)C(=O)N[C@@H](Cc1ccc(O)cc1)C(=O)N[C@@H](CCCCN)C(=O)O (H-TMANQNMNYK-OH)	HLA A*0301 (Homo sapiens)	209
CC(C)C[C@H](NC(=O)[C@H](Cc1ccccc1)NC(=O)[C@H](CO)NC(=O)[C@H](Cc1ccccc1)NC(=O)[C@H](CS)NC(=O)[C@H](Cc1ccccc1)NC(=O)[C@H](CC(C)C)NC(=O)[C@H](CC(N)=O)NC(=O)[C@H](CC(C)C)NC(=O)[C@@H](N)CCCNC(=N)N)C(=O)O (H-RLNLFCFSFL-OH)	HLA A*0301 (Homo sapiens)	6120
